Tested on: K-562 leukemia
test-protocol: NCI-60 one-dose screen, 48 h
condition-info: 10 µM
Compounds without any hit were thinned out: in the full panel of roughly 83,000, 20% have a hit. The source made the active and inactive calls. How the source made its calls: active means growth percent below 10; inactive means the rest.
Give your call using only these classes: TRUE for active, FALSE for inactive

Answered cases to consult:
COc1cccc(C2C3=C(COC3=O)N(CCO)c3cc(OC)ccc32)c1 (stereo not given) : FALSE
COc1cc(-c2cc(/C=C3\C(=O)Nc4ccc(Cl)cc43)[nH]n2)cc(OC)c1OC : TRUE
CN1CCC(CNc2cc(C3(C(=O)Nc4cc(C(=O)Nc5ccc(Cl)c(C(F)(F)F)c5)ccc4F)CC3)ncn2)CC1 : TRUE
Cc1cc2ccccc2nc1-c1ccccc1F : FALSE

Now examine the next entry.
Prompt line: Dear all, I need the recorded test outcome for "COc1cc(/C=C/C(=O)c2ccc(Cl)cc2)ccc1OS(=O)(=O)c1ccc(C)cc1" , thank you.
Response line: FALSE
